Source: ChEMBL document CHEMBL2010664

- experimental.system: Aurora kinase B (Homo sapiens, UniProt Q96GD4)
- Sequence (Q96GD4 whole entry): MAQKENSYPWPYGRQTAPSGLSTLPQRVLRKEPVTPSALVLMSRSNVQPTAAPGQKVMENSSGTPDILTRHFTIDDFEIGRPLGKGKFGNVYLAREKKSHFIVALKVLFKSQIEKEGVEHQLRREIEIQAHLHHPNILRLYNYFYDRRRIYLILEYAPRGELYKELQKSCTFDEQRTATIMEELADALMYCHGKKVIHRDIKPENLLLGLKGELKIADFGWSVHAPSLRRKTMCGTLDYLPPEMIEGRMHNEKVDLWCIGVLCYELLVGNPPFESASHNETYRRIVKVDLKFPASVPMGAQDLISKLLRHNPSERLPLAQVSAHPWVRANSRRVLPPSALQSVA
pIC50: −log10 of the molar value.
Criterion: pIC50 meeting or surpassing 7. Met: YES. Not met: NO.

NC(=O)c1cnc2[nH]c(-c3ccc(OCCN4CCCCC4)cc3)nc2c1NCCCNC(=O)C1CCC1 ... NO

Shift focus to the following entry.
Check if pIC50 >= 7 (inclusive). Item: "COc1ccc(-c2nc3c(NCCCN(C)C(=O)C4CCC4)c(Br)cnc3[nH]2)cc1"
YES

---

- experimental.system: Inhibitor of nuclear factor kappa-B kinase subunit epsilon (Homo sapiens)
- Sequence (Q14164 whole entry): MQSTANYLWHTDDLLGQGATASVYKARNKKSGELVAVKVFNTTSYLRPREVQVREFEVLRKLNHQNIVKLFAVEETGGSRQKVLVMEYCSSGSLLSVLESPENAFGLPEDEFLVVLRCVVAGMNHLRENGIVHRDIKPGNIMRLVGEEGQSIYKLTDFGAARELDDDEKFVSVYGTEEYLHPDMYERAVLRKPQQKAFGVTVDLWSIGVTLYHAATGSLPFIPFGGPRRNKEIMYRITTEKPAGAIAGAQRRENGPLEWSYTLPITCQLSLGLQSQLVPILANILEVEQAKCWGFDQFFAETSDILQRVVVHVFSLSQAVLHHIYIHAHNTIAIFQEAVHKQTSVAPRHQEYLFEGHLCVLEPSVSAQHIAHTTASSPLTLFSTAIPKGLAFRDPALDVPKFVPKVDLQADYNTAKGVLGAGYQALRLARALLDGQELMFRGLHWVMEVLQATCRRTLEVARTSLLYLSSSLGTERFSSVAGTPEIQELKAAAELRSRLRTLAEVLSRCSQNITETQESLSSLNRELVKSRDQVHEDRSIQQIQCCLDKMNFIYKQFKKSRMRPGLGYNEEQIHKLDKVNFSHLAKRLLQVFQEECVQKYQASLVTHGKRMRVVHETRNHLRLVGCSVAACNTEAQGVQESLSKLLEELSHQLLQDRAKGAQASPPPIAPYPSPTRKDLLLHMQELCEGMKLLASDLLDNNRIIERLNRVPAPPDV
outcome.measure: IC50
State the value with its unit after it.

COc1ccc(-c2nc3c(NCCCNC(=O)C4CCCC4)c(Br)cnc3[nH]2)cc1 ... 0.076 µM
COc1ccc(-c2nc3c(NCCCN(C)C(=O)C4CCC4)c(Br)cnc3[nH]2)cc1 ... 0.02 µM
COc1ccc(-c2nc3c(NCCCNC(=O)C4(CN)CC4)c(Br)cnc3[nH]2)cc1 ... 0.005 µM

Now turn to the next compound.
For the compound shown here, "CNc1c(Br)cnc2[nH]c(-c3cnn(C)c3)nc12" , give the reported IC50.
2.46 µM
